system-under-test: human dopamine D2L receptors (long isoform) (Homo sapiens, UniProt P14416)
Construct: expressed in transfected cells; host or cells: HEK-293
Sequence (P14416 whole entry, canonical isoform): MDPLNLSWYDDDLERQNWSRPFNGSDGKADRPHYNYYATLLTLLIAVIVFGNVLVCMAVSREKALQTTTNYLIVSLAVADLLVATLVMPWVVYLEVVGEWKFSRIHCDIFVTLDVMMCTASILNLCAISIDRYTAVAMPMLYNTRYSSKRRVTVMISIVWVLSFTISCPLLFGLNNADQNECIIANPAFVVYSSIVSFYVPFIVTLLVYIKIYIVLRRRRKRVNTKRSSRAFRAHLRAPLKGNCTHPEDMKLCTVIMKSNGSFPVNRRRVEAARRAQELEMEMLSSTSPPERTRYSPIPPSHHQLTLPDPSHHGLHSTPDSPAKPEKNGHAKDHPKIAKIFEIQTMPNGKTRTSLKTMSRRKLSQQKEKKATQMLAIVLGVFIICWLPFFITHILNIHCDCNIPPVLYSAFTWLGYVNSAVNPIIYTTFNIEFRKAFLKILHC
assay-remarks: Dopamine D2L receptor binding ([125I]iodospiperone displacement)
conditions-used: selectivity ratio, human D2L vs human D3 binding
Protocol: The substance to be tested was either dissolved in methanol/Chremophor® (BASF SE) or in dimethyl sulfoxide and then diluted with water to the desired concentration. Each assay mixture was run in triplicate. • The incubation buffer contained 50 mM tris, 120 mM NaCl, 5 mM KCl, 2 mM CaCl2, 2 mM MgCl2 and 0.1% bovine serum albumin, 10 μM quinolone and 0.1% ascorbic acid (prepared fresh daily). […]
measured-parameter: D2/D3, Ki (D2L)/Ki (D3)

# example entries with known answers
[
  {
    "molecule": "CC(C)(C)c1nc(C2CCC2)cc(N2CCN(CC[C@H]3C[C@H](NC(=O)[C@H]4CC[C@H](O)CC4)C3)CC2)n1",
    "D2/D3, Ki (D2L)/Ki (D3)": "+++ (+++ >50)"
  },
  {
    "molecule": "COCCc1cc(N2CCN(CC[C@H]3CC[C@H](NC(=O)[C@H]4CC[C@@H](O)CC4)CC3)CC2)nc(C(C)(C)C)n1",
    "D2/D3, Ki (D2L)/Ki (D3)": "++ (++ >20)"
  },
  {
    "molecule": "COCc1cc(N2CCN(CC[C@H]3CC[C@H](NC(=O)[C@H]4CC[C@H](O)CC4)CC3)CC2)nc(C(C)(C)C)n1",
    "D2/D3, Ki (D2L)/Ki (D3)": "+++ (+++ >50)"
  },
  {
    "molecule": "C[C@H]1CN(CC[C@H]2CC[C@@H](NC(=O)[C@H]3CC[C@H](O)CC3)CC2)CCN1c1cc(C(F)F)nc(C(C)(C)C)n1",
    "D2/D3, Ki (D2L)/Ki (D3)": "+++ (+++ >50)"
  },
  {
    "molecule": "CC(C)(C)c1nc(N2CCN(CC[C@H]3CC[C@H](NC(=O)[C@H]4CC[C@H](O)CC4)CC3)CC2)cc(C(F)(F)F)n1",
    "D2/D3, Ki (D2L)/Ki (D3)": "++ (++ >20)"
  },
  {
    "molecule": "CC(C)(C)c1nc(C2CCC2)cc(N2CCN(CC[C@H]3CC[C@H](NC(=O)[C@H]4C[C@@H](O)C4)CC3)CC2)n1",
    "D2/D3, Ki (D2L)/Ki (D3)": "++ (++ >20)"
  },
  {
    "molecule": "COCCc1cc(N2CCN(CC[C@H]3CC[C@H](NC(=O)C4CC(O)(C(F)(F)F)C4)CC3)CC2)nc(C(C)(C)C)n1 (relative stereo)",
    "D2/D3, Ki (D2L)/Ki (D3)": "++ (++ >20)"
  },
  {
    "molecule": "COCCc1cc(N2CCN(CC[C@H]3CC[C@@H](NC(=O)[C@H]4CC[C@@H](O)CC4)CC3)CC2)nc(C(C)(C)C)n1",
    "D2/D3, Ki (D2L)/Ki (D3)": "++ (++ >20)"
  },
  {
    "molecule": "CC(C)(C)c1nc(C2CCC2)cc(N2CCN(CC[C@H]3C[C@@H](NC(=O)[C@H]4CC[C@H](O)CC4)C3)CC2)n1",
    "D2/D3, Ki (D2L)/Ki (D3)": "+++ (+++ >50)"
  },
  {
    "molecule": "COCCc1cc(N2CCN(CC[C@H]3CC[C@@H](NC(=O)C4CC(O)(C(F)(F)F)C4)CC3)CC2)nc(C(C)(C)C)n1 (relative stereo)",
    "D2/D3, Ki (D2L)/Ki (D3)": "+++ (+++ >50)"
  }
]

Per the record, CC(C)c1cc(N2CCN(CCC3CCC(NC(=O)[C@H]4C[C@H](O)C4)CC3)CC2)nc(C(C)(C)C)n1 (relative stereo) has D2/D3, Ki (D2L)/Ki (D3) of +++ (+++ >50)

Per the record, CC(C)c1cc(N2CCN(CC[C@H]3CC[C@@H](NC(=O)[C@H]4CC[C@H](O)CC4)CC3)CC2)nc(C(C)(C)C)n1 has D2/D3, Ki (D2L)/Ki (D3) of +++ (+++ >50)

----------
system-under-test: human dopamine D2L receptors (long isoform) (Homo sapiens, UniProt P14416)
Construct: expressed in transfected cells; host or cells: HEK-293
assay-remarks: Dopamine D2L receptor binding ([125I]iodospiperone displacement)
conditions-used: selectivity ratio, human D2L vs human D3 binding

[
  {
    "smiles-notation": "CC(C)c1cc(N2CCN(CC[C@H]3CC[C@H](NC(=O)[C@H]4CC[C@H](O)CC4)CC3)CC2)nc(C(C)(C)C)n1",
    "D2/D3, Ki (D2L)/Ki (D3)": "++ (++ >20)"
  },
  {
    "smiles-notation": "CC(C)(C)c1nc(C2CCC2)cc(N2CCN(CC[C@H]3CC[C@H](NC(=O)[C@H]4C[C@H](O)C4)CC3)CC2)n1.O=C(O)C(F)(F)F",
    "D2/D3, Ki (D2L)/Ki (D3)": "++ (++ >20)"
  }
]

----------
assay-remarks: Determination of the microsomal half-life / microsomal clearance
Format: in vitro ADME
conditions-used: pH 7.4; human liver microsomes, 0.5 μM test substance, 0.25 mg protein/ml, NADPH, 37° C.; read-out: Human mCl (mikrosomal clearance)
We begin with a simple list: items and their reported microsomal CLint at 0.5 μM.

# example entries with known answers
[
  {
    "molecule": "CC(C)(C)c1nc(C2CCC2)cc(N2CCN(CC[C@H]3CC[C@@H](NC(=O)[C@H]4CC[C@@H](O)CC4)CC3)CC2)n1.O=C(O)C(F)(F)F",
    "microsomal CLint at 0.5 μM": "> 120 µL/min/mg"
  },
  {
    "molecule": "CC(C)(C)c1nc(C2CCC2)cc(N2CCN(CC[C@H]3CC[C@H](NC(=O)C4CC(O)(C(F)(F)F)C4)CC3)CC2)n1 (relative stereo)",
    "microsomal CLint at 0.5 μM": "20 to 120 µL/min/mg"
  },
  {
    "molecule": "COCCc1cc(N2CCN(CCC3CCC(NC(=O)C4CCC(O)CC4)CC3)C[C@H]2C)nc(C(C)(C)C)n1 (stereo partly shown)",
    "microsomal CLint at 0.5 μM": "20 to 120 µL/min/mg"
  },
  {
    "molecule": "CC(C)(C)c1nc(C(F)F)cc(N2CCN(CC[C@H]3CC[C@@H](NC(=O)[C@H]4CC[C@H](O)CC4)CC3)CC2)n1",
    "microsomal CLint at 0.5 μM": "20 to 120 µL/min/mg"
  },
  {
    "molecule": "COCCc1cc(N2CCN(CC[C@H]3CC[C@H](NC(=O)[C@H]4CC[C@H](OC)CC4)CC3)CC2)nc(C(C)(C)C)n1",
    "microsomal CLint at 0.5 μM": "> 120 µL/min/mg"
  }
]

Per the record, CC(C)(C)c1nc(C2CCC2)cc(N2CCN(CC[C@H]3CC[C@@H](NC(=O)[C@H]4CC[C@H](O)CC4)CC3)CC2)n1 has microsomal CLint at 0.5 μM of 20 to 120 µL/min/mg

Per the record, CC(C)(C)c1nc(N2CCN(CC[C@H]3CC[C@H](NC(=O)[C@H]4CC[C@H](O)CC4)CC3)CC2)cc(C(F)(F)F)n1 has microsomal CLint at 0.5 μM of 20 to 120 µL/min/mg

Per the record, COCc1cc(N2CCN(CC[C@H]3CC[C@H](NC(=O)[C@H]4CC[C@H](O)CC4)CC3)CC2)nc(C(C)(C)C)n1 has microsomal CLint at 0.5 μM of 20 to 120 µL/min/mg

Per the record, COCc1cc(N2CCN(CC[C@H]3CC[C@H](NC(=O)[C@H]4C[C@@H](O)C4)CC3)CC2)nc(C(C)(C)C)n1 has microsomal CLint at 0.5 μM of 20 to 120 µL/min/mg

Per the record, COCCc1cc(N2CCN(CC[C@H]3CC[C@H](NC(=O)[C@H]4C[C@@H](O)C4)CC3)CC2)nc(C(C)(C)C)n1 has microsomal CLint at 0.5 μM of 20 to 120 µL/min/mg

Per the record, COCCc1cc(N2CCN(CC[C@H]3C[C@H](NC(=O)[C@H]4CC[C@H](O)CC4)C3)CC2)nc(C(C)(C)C)n1.O=C(O)C(F)(F)F has microsomal CLint at 0.5 μM of 20 to 120 µL/min/mg

Per the record, CC(C)(C)c1nc(N2CCN(CC[C@H]3CC[C@@H](NC(=O)[C@H]4CC[C@H](O)CC4)CC3)CC2)cc(C2(C)CC2)n1 has microsomal CLint at 0.5 μM of 20 to 120 µL/min/mg

Per the record, CC(C)(C)c1nc(C2CCCC2)cc(N2CCN(CC[C@H]3CC[C@@H](NC(=O)[C@H]4CC[C@H](O)CC4)CC3)CC2)n1 has microsomal CLint at 0.5 μM of 20 to 120 µL/min/mg

The values you see were collected from patent US9388148B2.
